- ASSAY DETAILS: Mycobacterium tuberculosis growth inhibition, primary screen (AID 1259343)
- EXPERIMENTAL CONDITIONS: at 10 µM
About 2,900 (47%) of roughly 6,200 compounds were called active. Cut-off read from the data, not from the text of the source: active = inhibition above about 50%; inactive = the rest. The set was probably picked from earlier hits. Some of the results follow.
Labels: T for active, F for inactive

| MOLECULE | DISCRETE LABEL |
| --- | --- |
| COCCCNC(=O)c1nn(-c2ccc(F)cc2)c2ncccc12 | F |
| O=c1cc(C(F)(F)F)c2ccc(OS(=O)(=O)c3ccc(F)c(F)c3)cc2o1 | F |
| Cc1cc(C)c2sc(NCC(C)C)nc2c1 | F |
| CC(O)CNc1ncnc2c1c(-c1ccccc1)cn2-c1ccc(Cl)cc1 (centres undefined) | T |
| CCc1ccccc1Nc1nnc(SCC(=O)NC(C)C)s1 | T |
| Cc1csc(C(C)NCc2ccc(OCC(C)C)cc2)n1 (centres undefined) | T |
| COc1ccc(NC(=O)N2CCN(CCCOC(c3ccc(Cl)cc3)c3ccc(Cl)cc3)CC2)cc1 | F |
| COc1ccc(NC(=O)C(C)n2cccn2)cc1Cl (centres undefined) | F |
| CCOC(=O)c1c(CC(C)C)csc1NC=C(C#N)C#N | T |
| Cc1cc(C(C)(C)CC(C)(C)C)ccc1OCCOCC[N+](C)(C)Cc1ccccc1 | T |
| CN(C)CCCNc1ncnc2c1c(-c1ccccc1)cn2-c1ccc(Br)cc1 | T |
| O=C1CSC(=NN=C2NC(=O)C(CC(=O)Nc3ccc(Br)cc3)S2)N1 (centres undefined) | F |
| CCc1ccc(C(CNC(=O)Cc2ccc(C(F)(F)F)cc2)N(C)C)cc1 (centres undefined) | F |
| COc1ccc(NC(=O)CSc2n[nH]c(C3CC3)n2)cc1 | T |
| CC(C(=O)Nc1ccc(C#N)cc1)N1CC=C(c2ccccc2)CC1 (centres undefined) | F |
| O=C(CCSc1ccc(C(F)(F)F)cn1)Nc1c(Cl)cccc1Cl | F |
| COc1cccc(C(=O)N2CCC(c3nc(-c4ccc(C(F)(F)F)cc4)no3)CC2)c1 | F |
| CCCNc1ncnc2c1c(-c1ccccc1)cn2-c1ccccc1 | T |
| CC1CCN(C(=O)CCc2nc(-c3ccc(F)cc3)no2)CC1 | T |

====

- ASSAY DETAILS: Mycobacterium tuberculosis growth inhibition, primary screen (AID 1259343)
- EXPERIMENTAL CONDITIONS: at 10 µM, stronger effect = higher value
Hit rate of the full screen: of about 6,200 compounds, about 2,900 (47%) were called active. So high a share suggests a set chosen from earlier hits. Some of the results follow.
EXPERIMENTAL READOUT: inhibition (%)

| COMPOUND | OUTPUT UNIT | OBSERVED |
| --- | --- | --- |
| O=S(=O)(Nc1ccc(F)c(F)c1F)c1ccc(Cl)c2ncccc12 | % | 63 |
| CC(C)Cc1ccc(C(C)NC(=O)Cn2ccsc2=O)cc1 (stereo not drawn) | % | 92.5 |
| COc1ccc(C)cc1C(=O)Nc1ccc(N2CCCCC2)nc1 | % | 2.05 |

====

- ASSAY DETAILS: Mycobacterium tuberculosis growth inhibition, primary screen (AID 1259343)
- EXPERIMENTAL CONDITIONS: at 10 µM, stronger effect = higher value
The campaign covered roughly 6,200 compounds. About 2,900 (47%) were called active. The set was probably picked from earlier hits. The list shows a part of the results.
# inhibition listing for each entry below

| MOLECULE | OUTPUT UNIT | inhibition |
| --- | --- | --- |
| CN1CC(CNC(=O)OCc2ccccc2)CC2c3cccc4c3c(cn4C)CC21 (stereo unspecified) | % | 96.7 |
| Clc1ccc(OCCN2CCc3ccccc3C2)cc1 | % | 87.5 |
| Fc1cccc(CN2CCN(Cc3ccc(-c4cccnc4)cc3)CC2)c1 | % | 46.7 |
| N#CCc1ccc(Oc2ccc(C(=O)O)cc2)cc1 | % | 34.3 |
| CC(NC(=O)CCc1nnc(Cc2ccc(-c3ccccc3)cc2)o1)c1ccccc1 (stereo unspecified) | % | 37.7 |
| CN(C)C(=O)n1nnnc1Cc1ccc(-c2ccccc2)cc1 | % | 39.2 |
| N#CSc1ccc(N)c(Cl)c1 | % | 94.6 |
| Oc1cccc2ccc(C=Cc3cccc(Br)c3)nc12 | % | 90.5 |
| Cc1cc(O)c(S(=O)(=O)c2cc(Cl)c(Cl)cc2Cl)c(=O)[nH]1 | % | 60.9 |
| COc1ccc(-c2csc(-n3[nH]c(C)c(N=Nc4nccs4)c3=O)n2)cc1 | % | 98.8 |
| COC(=O)c1cc(C=O)c2ccc3ccccc3n12 | % | 27.1 |

====

- ASSAY DETAILS: Mycobacterium tuberculosis growth inhibition, primary screen (AID 1259343)
- EXPERIMENTAL CONDITIONS: at 10 µM
In all, about 6,200 compounds went through this assay and about 2,900 (47%) were called active. Cut-off read from the data, not from the text of the source: active = inhibition above about 50%; inactive = the rest. The set was probably picked from earlier hits. This is one part of the list.
Labels: active, inactive

| MOLECULE | DISCRETE LABEL |
| --- | --- |
| O=c1c(Cl)c(Cl)cnn1-c1ccc(NC2CC2)c(Cl)c1 | active |
| CCCCCCCCN=C1NC(=O)CS1 | active |
| COC(=O)c1ccc(NC(=O)CCc2ccncc2)cc1C | active |
| S=C(Nc1ccc(-n2cnnn2)cc1)NC1CC2CCC1C2 (stereo not given) | active |
| O=C(Sc1cccc2cccnc12)c1ccccc1Cl | active |
| S=C(NCC1COc2ccccc2O1)NC1CC2CCC1C2 (stereo not given) | inactive |
| Cc1nc(C)c(-c2csc(Nc3cccnc3)n2)s1 | inactive |
| Fc1c(F)c(F)c(NN=Cc2ccc3c(c2)OCO3)c(F)c1F | active |
| Clc1ccc(C2CN(Cc3cc(-c4cccnc4)no3)CCO2)cc1 (stereo not given) | inactive |
| Cc1nnc(NC(=O)C(C)SC(F)(F)F)s1 (stereo not given) | active |
| CSc1nsc(SCC2=NNC(=O)c3ccccc3O2)n1 | active |
| Cc1nc(C)c(-c2ccc(SCc3c(F)cccc3Cl)nn2)s1 | active |
| O=C1NC(=S)SC1=Cc1cccc(C(F)(F)F)c1 | inactive |
| CCn1c(O)c(C(C)=Nc2ccnn2C2CCCCC2)c(=O)n(CC)c1=S | active |
| COc1ccc2cc(C(=O)C3CCCN(C(=O)CCC(=O)c4ccc(F)cc4)C3)ccc2c1 (stereo not given) | active |
| Fc1ccc(NN=Cc2ccc3c(c2)OCO3)c(F)c1 | active |
| O=C(Nc1ccnn1C1CCCCC1)c1c(O)cc(F)cc1F | inactive |
| CN(Cc1cccc2cnccc12)S(=O)(=O)NCc1ccccc1 | inactive |
| CC(NC(=O)C1=NNC(=O)CC1)C1CC2CCC1C2 (stereo not given) | inactive |
| COc1c(F)cc(NS(=O)(=O)N(C)Cc2ccccc2)cc1F | inactive |
| Cc1ccc(/C(N)=N\OC(=O)CCc2ccccc2)cc1 | inactive |
| CN(CCCOc1ccccc1Cl)S(=O)(=O)NCc1ccccc1 | active |
| Cn1c(Cl)cnc1C1CC(c2cc(Cl)ccc2O)=NN1 (stereo not given) | active |
| CC1CC1C(=O)NC(C)C12CC3CC(CC(C3)C1)C2 (stereo not given) | active |
| O=C(O)c1csc(-c2cnn(-c3ccccc3)n2)n1 | inactive |
| O=C(NC12CC3CC(CC(C3)C1)C2)c1cccs1 | active |
| C(=NNc1ccc2ccccc2n1)c1ccc2c(c1)OCCO2 | inactive |
| O=C(N/N=C(\CC(=O)c1cccs1)C(F)(F)F)c1cccc(Br)c1 | active |
| O=C1Nc2ncccc2Oc2cc(F)cc(O)c21 | active |
| Fc1ccc(NN=Cc2ccc3c(c2)OCCO3)c(F)c1 | inactive |
| CCc1ccc(C(=O)Nc2ccc(Br)cc2)s1 | active |
| CC(=O)Nc1cccc(N=C2NN=C(C34CC5CC(CC(C5)C3)C4)CS2)c1 | inactive |
| Nc1ccc(Oc2ccc(Br)cc2)cc1 | inactive |
| CC(C)c1ccc(C2NC(=O)C(O)=C2C(=O)c2cccs2)cc1 (stereo not given) | inactive |
| O=c1c2c(F)c(F)c(F)c(F)c2on2c3c(nc12)CCCC3 | inactive |

====

- ASSAY DETAILS: Mycobacterium tuberculosis growth inhibition, primary screen (AID 1259343)
- EXPERIMENTAL CONDITIONS: at 10 µM
The whole screen tested about 6,200 compounds, of which about 2,900 (47%) were called active. Rule as the data show it: active = inhibition above about 50%; inactive = the rest. The set was probably picked from earlier hits. Some of the results follow.
Labels: y (active), n (inactive)

| MOLECULE | DISCRETE LABEL |
| --- | --- |
| O=C(Nc1cccc(-c2cccc(Cl)c2)c1)C1CCN(C2CCOCC2)CC1 | y |
| O=C(Nc1cccc(-c2cccc(Cl)c2)c1)C1CCN(C(=O)c2csnn2)CC1 | n |
| CC1CC(=NNc2nc3ccccc3s2)CC(C)(C)C1 (stereo unspecified) | n |
| N#Cc1cccc(CN2CCN3C(C(=O)Nc4ccc(-n5cccn5)cc4)=COC3=NC2=O)c1 | y |
| O=C(c1cc(COc2ccc3c(c2)CCCC3)on1)N1CCCN(c2ncccn2)CC1 | y |
| OC(c1ccc(Cl)cc1)c1ncc(-c2cccc(F)c2)[nH]1 (stereo unspecified) | n |
